TESTED_SYSTEM: Mitogen-activated protein kinase kinase kinase 5 (Homo sapiens)
Sequence (Q99683 whole entry): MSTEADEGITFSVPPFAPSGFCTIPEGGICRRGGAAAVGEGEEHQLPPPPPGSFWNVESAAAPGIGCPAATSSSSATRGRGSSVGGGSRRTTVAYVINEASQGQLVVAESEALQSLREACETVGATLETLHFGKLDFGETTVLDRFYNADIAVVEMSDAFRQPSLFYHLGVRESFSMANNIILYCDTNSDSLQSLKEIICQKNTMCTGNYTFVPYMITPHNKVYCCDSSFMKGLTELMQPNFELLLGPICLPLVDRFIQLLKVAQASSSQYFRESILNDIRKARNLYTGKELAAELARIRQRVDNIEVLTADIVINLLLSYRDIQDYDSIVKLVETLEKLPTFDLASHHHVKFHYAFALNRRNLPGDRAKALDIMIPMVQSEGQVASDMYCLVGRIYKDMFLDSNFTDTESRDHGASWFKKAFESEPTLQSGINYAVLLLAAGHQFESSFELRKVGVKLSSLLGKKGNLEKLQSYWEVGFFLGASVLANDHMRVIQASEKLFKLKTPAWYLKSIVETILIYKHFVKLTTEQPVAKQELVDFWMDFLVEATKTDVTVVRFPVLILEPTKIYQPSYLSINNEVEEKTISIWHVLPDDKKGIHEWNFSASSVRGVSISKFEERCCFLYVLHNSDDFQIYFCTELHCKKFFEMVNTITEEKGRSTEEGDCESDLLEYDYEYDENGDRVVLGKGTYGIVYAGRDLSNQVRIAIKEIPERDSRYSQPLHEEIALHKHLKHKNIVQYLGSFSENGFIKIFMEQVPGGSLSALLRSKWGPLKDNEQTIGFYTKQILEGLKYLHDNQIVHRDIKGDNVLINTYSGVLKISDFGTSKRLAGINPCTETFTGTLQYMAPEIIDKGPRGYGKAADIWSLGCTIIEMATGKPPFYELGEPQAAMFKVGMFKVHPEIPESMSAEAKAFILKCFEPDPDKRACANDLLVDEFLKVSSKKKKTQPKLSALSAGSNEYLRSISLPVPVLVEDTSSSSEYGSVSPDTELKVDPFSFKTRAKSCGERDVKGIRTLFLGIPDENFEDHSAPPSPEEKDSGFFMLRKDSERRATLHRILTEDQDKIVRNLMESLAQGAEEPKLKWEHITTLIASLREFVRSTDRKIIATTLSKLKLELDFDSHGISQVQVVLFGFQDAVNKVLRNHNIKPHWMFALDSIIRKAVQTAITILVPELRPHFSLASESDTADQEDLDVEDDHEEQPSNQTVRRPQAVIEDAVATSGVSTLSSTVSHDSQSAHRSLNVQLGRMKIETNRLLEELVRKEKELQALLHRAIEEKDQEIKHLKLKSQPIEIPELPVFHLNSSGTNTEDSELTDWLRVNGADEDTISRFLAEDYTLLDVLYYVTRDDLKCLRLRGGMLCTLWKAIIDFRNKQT
ASSAY_DETAILS: Inhibition of ASK1 in human HEK293 cells transfected with AP1 assessed as inhibition of AP1-induced firefly luciferase activity preincubated for 1 hr followed by PMA stimulation and measured after 6 hrs by luciferase reporter assay
Assay type: cell-based
OBSERVABLE: IC50 (µM)

# MOL, READOUT_NUMBER
measured = [
    ("CC(C)n1cnnc1-c1ccc2[nH]nc(-c3cccc(-n4cnc(C5CC5)n4)c3)c2c1", 8.88),
    ("COCn1cc(-c2cccc(-c3n[nH]c4ccc(-c5nncn5C(C)C)cc34)c2)cn1", 9.81),
    ("CC(C)n1cnnc1-c1ccc2[nH]nc(-c3cccc(-c4cnn(C5CCOCC5)c4)c3)c2c1", 12.1),
    ("c1cc(-c2n[nH]c3ccc(-c4nncn4C4CCC4)cc23)cc(-n2cnc(C3CC3)c2)c1", 7.28),
]

P = CC(C)n1cnnc1-c1ccc2[nH]nc(-c3ccc(N4CCOCC4)c(-n4cnc(C5CC5)c4)c3)c2c1
Q = c1cc(-c2n[nH]c3ccc(-c4nncn4C4CC4)cc23)cc(-n2cnc(C3CC3)c2)c1
Endpoint returns the identifier whose IC50 is numerically larger, either P or Q . Your answer should be the label attached to the chosen record.
P
